Here the recorded Inh (PKA) is given for each entry.
System: PRKACA-PRKAR2A interaction (SmBiT-PRKACA / LgBiT-PRKAR2A), protein kinase A
Parameters: NanoLuc complementation counter-screen in cell extract, PRKACA with PRKAR2A, loss of luminescence, detects NanoLuc interference
Measurement setup: counter-screen for NanoLuc interference; 0.5 h, 20 µM; inhibitor
Give the value in % but do not write % after it.

For orientation, consider the following solved cases.
[
  {
    "Compound": "C=CC[N+]1([C@H]2C[C@H]3[C@@H]4CC[C@H]5C[C@H](O)[C@@H](N6CCOCC6)C[C@]5(C)[C@H]4CC[C@]3(C)[C@H]2OC(C)=O)CCCC1 [UM0141392:01, Rocuronium Bromide]",
    "Endpoint unit": "%",
    "Inh (PKA)": 2.002
  },
  {
    "Compound": "C[N+]1(C)CCC(=C(c2ccccc2)c2ccccc2)CC1 [UM0118457:03, Diphemanil Methylsulfate]",
    "Endpoint unit": "%",
    "Inh (PKA)": -0.1303
  },
  {
    "Compound": "CC1(C)[C@@H](OC(=O)CCC(=O)O)CC[C@]2(C)[C@H]3C(=O)C=C4[C@@H]5C[C@@](C)(C(=O)O)CC[C@]5(C)CC[C@@]4(C)[C@]3(C)CC[C@@H]12 [UM0134288:02, Carbenoxolone disodium]",
    "Endpoint unit": "%",
    "Inh (PKA)": 9.677
  },
  {
    "Compound": "CCOc1cc(C(C)(C)C)ccc1C1=N[C@@](C)(c2ccc(Cl)cc2)[C@@](C)(c2ccc(Cl)cc2)N1C(=O)N1CCN(CCCS(C)(=O)=O)CC1",
    "Endpoint unit": "%",
    "Inh (PKA)": 18.3
  },
  {
    "Compound": "CC(=O)[C@H]1CC[C@H]2[C@@H]3CC=C4C[C@@H](O)CC[C@]4(C)[C@H]3CC[C@]12C",
    "Endpoint unit": "%",
    "Inh (PKA)": 6.585
  },
  {
    "Compound": "Cc1nc(Nc2cnn(C3CCNCC3)c2)nc2c1N(C)C(=O)c1cc3ccccc3cc1N2C",
    "Endpoint unit": "%",
    "Inh (PKA)": 10.88
  }
]

Okay, next one:
input: Query (compound): COC[C@@H]1CCCN1S(=O)(=O)c1ccc2c(c1)C(=O)C(=O)N2 ; field requested: Inh (PKA)
output: 2.243

----------
System: PRKACA-PRKAR2A interaction (SmBiT-PRKACA / LgBiT-PRKAR2A), protein kinase A
Set-up: NanoLuc complementation counter-screen in cell extract, PRKACA with PRKAR2A, loss of luminescence, detects NanoLuc interference
Measurement setup: counter-screen for NanoLuc interference; 0.5 h, 20 µM; inhibitor
Here the recorded Inh (PKA) is given for each entry.
Give the value in % but do not write % after it.

[
  {
    "Molecule": "CN(C)Cc1cccc(N/C(=C2\\C(=O)Nc3cc(C(=O)N(C)C)ccc32)c2ccccc2)c1 [BIX02189]",
    "Inh (PKA) / %": 9.078
  },
  {
    "Molecule": "Nc1nccc(Oc2ccc3c(C(=O)Nc4cccc(C(F)(F)F)c4)cccc3c2)n1 [UM0142802:01, BAW2881 (NVP-BAW2881)]",
    "Inh (PKA) / %": 7.673
  },
  {
    "Molecule": "O=c1oc2c(O)c(O)cc3c(=O)oc4c(O)c(O)cc1c4c23 [UM0119370:03, Ellagic acid]",
    "Inh (PKA) / %": 2.639
  }
]

input: Query (molecule): COc1cc(OC)c(NC(=O)Nc2cc(C)on2)cc1Cl [UM0142328:01, PNU-120596] ; field requested: Inh (PKA)
output: 15.14

input: Query (molecule): CO[C@@H]1[C@H](OC(=O)/C=C/C=C/C=C/C=C/C(=O)O)CC[C@]2(CO2)[C@H]1[C@@]1(C)O[C@@H]1CC=C(C)C [UM0141832:01, Fumagillin] ; field requested: Inh (PKA)
output: 0.06739

input: Query (molecule): Nc1nc(NCCNc2ncc(-n3ccnc3)c(-c3ccc(Cl)cc3Cl)n2)ccc1[N+](=O)[O-] [UM0142026:01, CHIR-98014] ; field requested: Inh (PKA)
output: 80.31

input: Query (molecule): c1nc2c(NC3CCCCC3)nc(Nc3ccc(N4CCOCC4)cc3)nc2[nH]1 [UM0141614:01, Reversine] ; field requested: Inh (PKA)
output: 32.72

input: Query (molecule): CCN1CCN(Cc2ccc(Nc3ncc(F)c(-c4cc(F)c5nc(C)n(C(C)C)c5c4)n3)nc2)CC1 [UM0141414:01, LY2835219] ; field requested: Inh (PKA)
output: 8.649

input: Query (molecule): Cc1ccc(C(=O)N(CCCN)[C@@H](c2nc3cc(Cl)ccc3c(=O)n2Cc2ccccc2)C(C)C)cc1 [UM0141883:01, Ispinesib (SB-715992)] ; field requested: Inh (PKA)
output: 12.18

input: Query (molecule): C=C1CC[C@H](O)C/C1=C/C=C1\CCC[C@]2(C)[C@@H]([C@H](C)CCCC(C)(C)O)CC[C@@H]12 [UM0142419:01, Calcifediol] ; field requested: Inh (PKA)
output: 12.98

input: Query (molecule): CC(/C=C/C(=O)NO)=C\[C@@H](C)C(=O)c1ccc(N(C)C)cc1 [UM0128540:02, Trichostatin A (TSA)] ; field requested: Inh (PKA)
output: 3.519

input: Query (molecule): COc1ccc(Cl)c(Nc2nc3ccccc3nc2NS(=O)(=O)c2cccc(NC(=O)C(C)(C)N)c2)c1 [UM0130997:02, XL147] ; field requested: Inh (PKA)
output: 61.81

input: Query (molecule): Cn1cc(-c2ccc(F)c(C(F)(F)F)c2)nc1C1CCN(c2ncnc3[nH]ncc23)CC1 [UM0142649:01, LY2584702] ; field requested: Inh (PKA)
output: 26.28

input: Query (molecule): N#Cc1ccc(Oc2ccc3c(c2)COB3O)cc1 [UM0141516:01, AN-2728] ; field requested: Inh (PKA)
output: 2.062

input: Query (molecule): CCC[C@H](NC(=O)/C(C#N)=C/c1cccc(Br)n1)c1ccccc1 [UM0141988:01, WP1130] ; field requested: Inh (PKA)
output: 8.904

input: Query (molecule): CC[C@@H]1/C=C(\C)C[C@H](C)C[C@H](OC)[C@H]2O[C@@](O)(C(=O)C(=O)N3CCCC[C@H]3C(=O)O[C@H](/C(C)=C/[C@@H]3CC[C@H](Cl)[C@H](OC)C3)[C@H](C)[C@@H](O)CC1=O)[C@H](C)C[C@@H]2OC [UM0142376:01, Pimecrolimus] ; field requested: Inh (PKA)
output: 0.5953

input: Query (molecule): Nc1cc(C(F)(F)F)c(-c2cc(N3CCOCC3)nc(N3CCOCC3)n2)cn1 [UM0141503:01, BKM120] ; field requested: Inh (PKA)
output: 7.459

input: Query (molecule): Cc1cccc(-c2[nH]ncc2-c2ccc3ncccc3n2)n1 [UM0141613:01, RepSox] ; field requested: Inh (PKA)
output: 2.359

input: Query (molecule): CC(C)c1onc(-c2c(Cl)cccc2Cl)c1COc1ccc(/C=C/c2cccc(C(=O)O)c2)c(Cl)c1 [UM0142293:01, GW4064] ; field requested: Inh (PKA)
output: 30.87

----------
Tested on: PRKACA-PRKAR2A interaction (SmBiT-PRKACA / LgBiT-PRKAR2A), protein kinase A
Design: NanoLuc complementation counter-screen in cell extract, PRKACA with PRKAR2A, loss of luminescence, detects NanoLuc interference
Measurement setup: 0.5 h, 20 µM; inhibitor
Counter-ions that a name gives are not always drawn.
Readout type: Inh (PKA) (%)
Give the value in % but do not write % after it.

[
  {
    "Compound": "C/C=C/c1ccc2c(c1)OCO2 [UM0133473:02, Isosafrole]",
    "Target entity": "PRKACA-PRKAR2A interaction (SmBiT-PRKACA / LgBiT-PRKAR2A), protein kinase A",
    "Endpoint unit": "%",
    "Inh (PKA)": 2.424
  },
  {
    "Compound": "CN1CCCCC1Cn1cc(C(=O)c2cc([N+](=O)[O-])ccc2I)c2ccccc21 (stereo not shown) [UM0141913:01, AM1241]",
    "Target entity": "PRKACA-PRKAR2A interaction (SmBiT-PRKACA / LgBiT-PRKAR2A), protein kinase A",
    "Endpoint unit": "%",
    "Inh (PKA)": 12.3
  },
  {
    "Compound": "CC(C)(O)/C=C/C(=O)[C@](C)(O)[C@H]1[C@H](O)C[C@@]2(C)[C@@H]3CC=C4[C@@H](C=C(O)C(=O)C4(C)C)[C@]3(C)C(=O)C[C@]12C [UM0141852:01, Cucurbitacin I]",
    "Target entity": "PRKACA-PRKAR2A interaction (SmBiT-PRKACA / LgBiT-PRKAR2A), protein kinase A",
    "Endpoint unit": "%",
    "Inh (PKA)": -0.1004
  },
  {
    "Compound": "CN(Cc1cccc(-c2ccncc2)c1)C(=O)Oc1ccc(-c2ccc(C(N)=O)cc2)cc1 [UM0142148:01, WWL 70]",
    "Target entity": "PRKACA-PRKAR2A interaction (SmBiT-PRKACA / LgBiT-PRKAR2A), protein kinase A",
    "Endpoint unit": "%",
    "Inh (PKA)": 11.8
  },
  {
    "Compound": "COC(=O)C1=CCCN(C)C1 [UM0053253:04, Arecoline hydrobromide]",
    "Target entity": "PRKACA-PRKAR2A interaction (SmBiT-PRKACA / LgBiT-PRKAR2A), protein kinase A",
    "Endpoint unit": "%",
    "Inh (PKA)": -0.2973
  }
]

input: Return Inh (PKA) measured with PRKACA-PRKAR2A interaction (SmBiT-PRKACA / LgBiT-PRKAR2A), protein kinase A given this compound: O=P1(NCCCl)OCCCN1CCCl (stereo not shown) [UM0118931:03, Ifosfamide]
output: -0.3336

input: Return Inh (PKA) measured with PRKACA-PRKAR2A interaction (SmBiT-PRKACA / LgBiT-PRKAR2A), protein kinase A given this compound: CN(C)NC(=O)CCC(=O)O [UM0056235:02, Daminozide]
output: 2.677

input: Return Inh (PKA) measured with PRKACA-PRKAR2A interaction (SmBiT-PRKACA / LgBiT-PRKAR2A), protein kinase A given this compound: Cc1cc(N2CCN([C@@H]3CN[C@H](C(=O)N4CCSC4)C3)CC2)n(-c2ccccc2)n1 [UM0141637:01, Teneligliptin hydrobromide]
output: -1.766

input: Return Inh (PKA) measured with PRKACA-PRKAR2A interaction (SmBiT-PRKACA / LgBiT-PRKAR2A), protein kinase A given this compound: O=C(Oc1ccc([N+](=O)[O-])cc1)N1CCC(C(O)(c2ccc3c(c2)OCO3)c2ccc3c(c2)OCO3)CC1 [UM0142396:01, JZL184]
output: 16.72

input: Return Inh (PKA) measured with PRKACA-PRKAR2A interaction (SmBiT-PRKACA / LgBiT-PRKAR2A), protein kinase A given this compound: COC1=C[C@@H]2[C@@H]3Cc4ccc(OC)c(O)c4[C@]2(CCN3C)CC1=O [UM0142862:01, Sinomenine Hydrochloride]
output: 0.8653

input: Return Inh (PKA) measured with PRKACA-PRKAR2A interaction (SmBiT-PRKACA / LgBiT-PRKAR2A), protein kinase A given this compound: Cn1c(COP(=O)(NCCBr)NCCBr)cnc1[N+](=O)[O-] [UM0141638:01, TH-302]
output: 1.841

input: Return Inh (PKA) measured with PRKACA-PRKAR2A interaction (SmBiT-PRKACA / LgBiT-PRKAR2A), protein kinase A given this compound: CC(=O)Nc1ccc(OC[C@](C)(O)C(=O)Nc2ccc([N+](=O)[O-])c(C(F)(F)F)c2)cc1 [UM0141445:01, Andarine]
output: 7.113

input: Return Inh (PKA) measured with PRKACA-PRKAR2A interaction (SmBiT-PRKACA / LgBiT-PRKAR2A), protein kinase A given this compound: COc1ccc(N(C(=O)Oc2c(C)cccc2C)c2ccnc(Nc3ccc(N4CCN(C)CC4)cc3)n2)c(OC)c1 [UM0142819:01, WH-4-023]
output: 37.82

input: Return Inh (PKA) measured with PRKACA-PRKAR2A interaction (SmBiT-PRKACA / LgBiT-PRKAR2A), protein kinase A given this compound: COc1cc2cc(c1Cl)N(C)C(=O)C[C@H](OC(=O)C(C)C)[C@]1(C)O[C@@H]1[C@H](C)[C@@H]1C[C@@](O)(NC(=O)O1)[C@H](OC)/C=C/C=C(\C)C2 [UM0141517:01, Ansamitocin P-3]
output: 6.121

input: Return Inh (PKA) measured with PRKACA-PRKAR2A interaction (SmBiT-PRKACA / LgBiT-PRKAR2A), protein kinase A given this compound: Cc1cccc(C)c1NC1=NCCCS1 [UM0134421:02, Xylazine HCl]
output: 1.103

Data origin: paper PMC9995496
